Molecular target: 5‐HT1A receptor (Rattus norvegicus, UniProt P19327)
Construct: 80 μg of hippocampal membrane suspension (the 5‐HT1A assay); from tissue; host or cells: rat (Sprague-Dawley) hippocampus membranes
Sequence (P19327 1-422): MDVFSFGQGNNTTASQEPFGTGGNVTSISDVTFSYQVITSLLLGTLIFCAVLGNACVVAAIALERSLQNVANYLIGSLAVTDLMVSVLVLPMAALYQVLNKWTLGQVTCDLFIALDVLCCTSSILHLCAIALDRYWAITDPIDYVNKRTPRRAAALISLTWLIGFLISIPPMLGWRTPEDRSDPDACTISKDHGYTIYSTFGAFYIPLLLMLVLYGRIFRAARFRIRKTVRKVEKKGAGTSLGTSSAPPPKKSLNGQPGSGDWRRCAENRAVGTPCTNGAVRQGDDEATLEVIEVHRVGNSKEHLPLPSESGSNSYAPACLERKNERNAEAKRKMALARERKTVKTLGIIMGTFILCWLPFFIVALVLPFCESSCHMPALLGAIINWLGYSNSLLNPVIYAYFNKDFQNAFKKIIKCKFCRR
Assay: 5‐HT1A receptor activation in the [35S]GTP‐γ‐S assay (hippocampal membranes)
Type: biochemical
Conditions: [35S]GTPγS, rat hippocampal membranes; read-out: Emax (%) ± SEM, 5‐HT1A receptor G‐protein stimulation
Quantity kind: Emax (%)
Give the number; % is assumed, so skip it.

A selection of reference data follows.
>>> numeric_readout("O=C1C2C3C=CC(C3)C2C(=O)N1OCCCN1CCN(c2ccccc2C2=NCCS2)CC1 (stereo not shown) [FG‐7]")
177
>>> numeric_readout("O=C(NCCCN1CCN(c2ccccc2C2=NCCS2)CC1)c1ccccn1 [FG‐1]")
138
>>> numeric_readout("O=C(NCCCN1CCN(c2cccc(C3=NCCS3)c2)CC1)c1ccncc1 [FG‐5]")
185

Name the reported Emax value associated with the compound O=C1C2C3C=CC(O3)C2C(=O)N1OCCCN1CCN(c2ccccc2C2=NCCS2)CC1 (stereo not shown) [FG‐10] 120
